molecular target: Myosin light chain kinase, smooth muscle (Homo sapiens) (UniProt Q15746); conditions: at 10 µM
Sequence (Q15746 whole entry): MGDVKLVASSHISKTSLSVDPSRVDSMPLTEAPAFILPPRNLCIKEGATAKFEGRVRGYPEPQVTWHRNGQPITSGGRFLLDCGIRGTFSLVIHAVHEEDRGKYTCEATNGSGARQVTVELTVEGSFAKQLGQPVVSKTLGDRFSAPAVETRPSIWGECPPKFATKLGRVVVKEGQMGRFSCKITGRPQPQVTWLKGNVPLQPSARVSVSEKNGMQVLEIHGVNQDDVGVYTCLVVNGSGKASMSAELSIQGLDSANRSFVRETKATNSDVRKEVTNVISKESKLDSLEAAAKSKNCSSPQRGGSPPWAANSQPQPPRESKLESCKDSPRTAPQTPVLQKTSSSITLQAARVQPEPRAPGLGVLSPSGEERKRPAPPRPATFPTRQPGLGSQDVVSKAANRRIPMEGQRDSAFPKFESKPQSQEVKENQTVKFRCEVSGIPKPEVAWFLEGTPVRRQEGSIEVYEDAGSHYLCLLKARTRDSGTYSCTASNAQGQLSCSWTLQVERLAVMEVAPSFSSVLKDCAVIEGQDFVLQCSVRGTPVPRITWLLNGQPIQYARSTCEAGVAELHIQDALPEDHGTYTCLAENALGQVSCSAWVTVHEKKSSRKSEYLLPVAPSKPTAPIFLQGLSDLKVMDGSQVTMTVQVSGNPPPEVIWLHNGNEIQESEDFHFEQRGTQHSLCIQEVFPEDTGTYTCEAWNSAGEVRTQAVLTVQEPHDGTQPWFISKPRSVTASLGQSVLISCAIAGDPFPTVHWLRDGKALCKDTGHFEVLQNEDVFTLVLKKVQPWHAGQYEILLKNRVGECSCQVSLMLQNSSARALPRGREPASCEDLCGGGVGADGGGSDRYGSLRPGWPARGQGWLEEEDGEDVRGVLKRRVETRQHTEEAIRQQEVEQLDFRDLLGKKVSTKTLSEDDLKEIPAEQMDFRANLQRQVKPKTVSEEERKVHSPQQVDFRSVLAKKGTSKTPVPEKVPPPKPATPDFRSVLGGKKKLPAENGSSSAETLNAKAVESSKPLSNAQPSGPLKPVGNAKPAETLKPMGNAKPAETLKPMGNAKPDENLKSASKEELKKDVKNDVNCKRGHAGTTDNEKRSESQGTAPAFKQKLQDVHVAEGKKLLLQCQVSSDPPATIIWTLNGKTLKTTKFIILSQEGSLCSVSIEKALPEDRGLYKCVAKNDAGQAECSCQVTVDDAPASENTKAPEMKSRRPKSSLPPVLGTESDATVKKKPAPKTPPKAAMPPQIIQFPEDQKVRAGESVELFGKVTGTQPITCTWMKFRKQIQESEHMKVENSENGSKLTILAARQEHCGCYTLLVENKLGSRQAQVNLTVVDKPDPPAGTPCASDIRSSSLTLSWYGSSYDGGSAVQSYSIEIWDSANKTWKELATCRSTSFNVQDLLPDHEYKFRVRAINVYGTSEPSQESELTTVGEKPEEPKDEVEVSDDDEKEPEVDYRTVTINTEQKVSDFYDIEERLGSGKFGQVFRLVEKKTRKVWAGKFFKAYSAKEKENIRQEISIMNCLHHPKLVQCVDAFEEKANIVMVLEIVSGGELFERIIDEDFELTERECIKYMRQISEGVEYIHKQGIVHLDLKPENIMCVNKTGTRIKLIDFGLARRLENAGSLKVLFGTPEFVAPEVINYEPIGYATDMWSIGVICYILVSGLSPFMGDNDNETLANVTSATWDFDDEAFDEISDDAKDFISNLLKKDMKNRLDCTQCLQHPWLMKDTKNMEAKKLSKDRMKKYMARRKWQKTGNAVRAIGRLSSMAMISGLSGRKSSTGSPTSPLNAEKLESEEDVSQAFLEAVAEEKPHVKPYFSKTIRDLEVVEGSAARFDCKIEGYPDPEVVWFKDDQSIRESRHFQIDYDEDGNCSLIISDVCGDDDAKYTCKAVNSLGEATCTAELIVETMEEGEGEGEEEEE
RECORDED_METRIC: residual activity (%)
The response must be a number in % with no trailing unit.

Exercise: Give recorded residual activity. COc1cc2nccc(Oc3ccc(NC(=S)NC(=O)c4ccccc4C)cc3)c2cc1OC
Key: 80

Exercise: Give recorded residual activity. O=c1cc(N2CCNCC2)oc2c(-c3ccccc3)cccc12
Key: 95

Exercise: Give recorded residual activity. O=C1Cc2c([nH]c3ccc(Br)cc23)-c2ccccc2N1
Key: 58

Exercise: Give recorded residual activity. Nc1ncnc2[nH]nc(Nc3ccc(F)cc3)c12
Key: 78

Exercise: Give recorded residual activity. CN([C@@H](Cc1ccc(OS(=O)(=O)c2cccc3cnccc23)cc1)C(=O)N1CCN(c2ccccc2)CC1)S(=O)(=O)c1cccc2cnccc12
Key: 72

Exercise: Give recorded residual activity. O=C(O)/C=C/c1cc(Br)c(Br)c(Br)c1Br
Key: 22

Exercise: Give recorded residual activity. CC(C)N(CCC(=O)c1ccc2ccccc2c1)Cc1ccccc1
Key: 83

Exercise: Give recorded residual activity. O=C(NC(NC(=S)Nc1ccc(F)c([N+](=O)[O-])c1)C(Cl)(Cl)Cl)C(c1ccccc1)c1ccccc1 (configuration not stated)
Key: 79

Exercise: Give recorded residual activity. NC(=O)Nc1sc(-c2ccc(F)cc2)cc1C(N)=O
Key: 31

Exercise: Give recorded residual activity. Nc1ncnc2c1cnn2-c1ccccc1
Key: 84

Exercise: Give recorded residual activity. N#C/C(=C1/Nc2ccccc2S1)c1ccnc(NCCc2cccnc2)n1
Key: 73

Exercise: Give recorded residual activity. O=C1NC(=O)C(c2cn(CCCO)c3ncccc23)=C1c1cnccn1
Key: 78

* * *

Molecular target: Activin receptor type-1B (Homo sapiens) (UniProt P36896)
Sequence (whole entry): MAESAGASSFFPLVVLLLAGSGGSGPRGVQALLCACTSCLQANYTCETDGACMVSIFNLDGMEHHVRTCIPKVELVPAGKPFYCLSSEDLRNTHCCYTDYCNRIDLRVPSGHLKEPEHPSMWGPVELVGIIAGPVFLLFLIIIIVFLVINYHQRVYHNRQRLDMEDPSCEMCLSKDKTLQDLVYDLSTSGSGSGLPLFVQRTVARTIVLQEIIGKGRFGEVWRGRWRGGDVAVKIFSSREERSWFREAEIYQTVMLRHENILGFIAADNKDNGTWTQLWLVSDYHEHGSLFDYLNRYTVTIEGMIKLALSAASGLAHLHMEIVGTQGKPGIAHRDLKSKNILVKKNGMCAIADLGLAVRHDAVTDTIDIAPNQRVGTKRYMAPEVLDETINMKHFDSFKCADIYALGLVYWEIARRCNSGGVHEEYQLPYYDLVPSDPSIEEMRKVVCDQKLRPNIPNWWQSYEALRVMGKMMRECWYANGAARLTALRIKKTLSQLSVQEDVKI
Conditions: at 1 µM
RECORDED_METRIC: residual activity (%)
The response must be a number in % with no trailing unit.

Exercise: Give residual activity for this entry on Activin receptor type-1B (Homo sapiens) (UniProt P36896): Nc1nc(Nc2ccc(S(N)(=O)=O)cc2)nn1C(=O)c1c(F)cccc1F
Key: 100

Exercise: Give residual activity for this entry on Activin receptor type-1B (Homo sapiens) (UniProt P36896): Cn1c2ccccc2c2c3c(c4c5ccccc5n(CCC#N)c4c21)CNC3=O
Key: 108

Exercise: Give residual activity for this entry on Activin receptor type-1B (Homo sapiens) (UniProt P36896): COc1cc2ncnc(Nc3cccc(Cl)c3)c2cc1OC
Key: 105

Exercise: Give residual activity for this entry on Activin receptor type-1B (Homo sapiens) (UniProt P36896): N#Cc1c(NC(=O)c2cccc3ccccc23)sc2c1CCCC2
Key: 87

Exercise: Give residual activity for this entry on Activin receptor type-1B (Homo sapiens) (UniProt P36896): COc1cc2nccc(Oc3ccc(NC(=S)NC(=O)c4ccccc4C)cc3)c2cc1OC
Key: 126

Exercise: Give residual activity for this entry on Activin receptor type-1B (Homo sapiens) (UniProt P36896): CCN(CC)CCNC(=O)c1c(C)[nH]c(/C=C2\C(=O)Nc3ccc(Cl)cc32)c1C
Key: 126

Exercise: Give residual activity for this entry on Activin receptor type-1B (Homo sapiens) (UniProt P36896): O=C1NC(=O)c2c1c1c3ccccc3[nH]c1n1cncc21
Key: 97

Exercise: Give residual activity for this entry on Activin receptor type-1B (Homo sapiens) (UniProt P36896): COc1cc2nccc(Oc3ccc(NC(=O)Nc4cc(C)on4)c(Cl)c3)c2cc1OC
Key: 105

Exercise: Give residual activity for this entry on Activin receptor type-1B (Homo sapiens) (UniProt P36896): Nc1ncnc2c1c(-c1ccc(Oc3ccccc3)cc1)cn2C1CCCC1
Key: 125

Exercise: Give residual activity for this entry on Activin receptor type-1B (Homo sapiens) (UniProt P36896): COc1ccc(COc2ccc(Cc3cnc(N)nc3N)cc2OC)cc1
Key: 120

Exercise: Give residual activity for this entry on Activin receptor type-1B (Homo sapiens) (UniProt P36896): NCCNc1ncc(C(N)=O)c(Nc2cccc(C(F)(F)F)c2)n1
Key: 136

Exercise: Give residual activity for this entry on Activin receptor type-1B (Homo sapiens) (UniProt P36896): CC(C)(C)n1nc(Cc2cccc3ccccc23)c2c(N)ncnc21
Key: 129

Exercise: Give residual activity for this entry on Activin receptor type-1B (Homo sapiens) (UniProt P36896): O=C1NC(=O)C(c2cn(CCCO)c3ncccc23)=C1c1cnccn1
Key: 83

Exercise: Give residual activity for this entry on Activin receptor type-1B (Homo sapiens) (UniProt P36896): O=C1C(Cl)=C(N2C(=O)CCC2=O)C(=O)c2ccccc21
Key: 101

Exercise: Give residual activity for this entry on Activin receptor type-1B (Homo sapiens) (UniProt P36896): Oc1cccc(-c2nc(N3CCOCC3)c3oc4ncccc4c3n2)c1
Key: 148

Exercise: Give residual activity for this entry on Activin receptor type-1B (Homo sapiens) (UniProt P36896): COc1ccc(-c2cnc3c(-c4ccsc4)cnn3c2)cc1
Key: 126

Exercise: Give residual activity for this entry on Activin receptor type-1B (Homo sapiens) (UniProt P36896): O=C1NC(=O)C(c2cn(CCCn3ccnc3)c3ccccc23)=C1Nc1ccccc1
Key: 107

* * *

I'd appreciate it if you could supply residual activity values for the items below.
target: Calcium/calmodulin-dependent protein kinase type 1 (Homo sapiens); details: at 1 µM
The response must be a number in % with no trailing unit.

Exercise: Give recorded residual activity. CC(C)(C)n1nc(Cc2cccc3ccccc23)c2c(N)ncnc21
Key: 105

Exercise: Give recorded residual activity. O=C1NC(=O)C(c2cn(CCCO)c3ncccc23)=C1c1cnccn1
Key: 93

Exercise: Give recorded residual activity. Nc1n[nH]c2nc3ccccc3nc12
Key: 87

Exercise: Give recorded residual activity. O=C(NC(NC(=S)Nc1ccc(F)c([N+](=O)[O-])c1)C(Cl)(Cl)Cl)C(c1ccccc1)c1ccccc1 (centres undefined)
Key: 99

* * *

target: Proto-oncogene tyrosine-protein kinase Src (Homo sapiens) (UniProt P12931); conditions: at 10 µM
Sequence (P12931 2-536 limits assumed): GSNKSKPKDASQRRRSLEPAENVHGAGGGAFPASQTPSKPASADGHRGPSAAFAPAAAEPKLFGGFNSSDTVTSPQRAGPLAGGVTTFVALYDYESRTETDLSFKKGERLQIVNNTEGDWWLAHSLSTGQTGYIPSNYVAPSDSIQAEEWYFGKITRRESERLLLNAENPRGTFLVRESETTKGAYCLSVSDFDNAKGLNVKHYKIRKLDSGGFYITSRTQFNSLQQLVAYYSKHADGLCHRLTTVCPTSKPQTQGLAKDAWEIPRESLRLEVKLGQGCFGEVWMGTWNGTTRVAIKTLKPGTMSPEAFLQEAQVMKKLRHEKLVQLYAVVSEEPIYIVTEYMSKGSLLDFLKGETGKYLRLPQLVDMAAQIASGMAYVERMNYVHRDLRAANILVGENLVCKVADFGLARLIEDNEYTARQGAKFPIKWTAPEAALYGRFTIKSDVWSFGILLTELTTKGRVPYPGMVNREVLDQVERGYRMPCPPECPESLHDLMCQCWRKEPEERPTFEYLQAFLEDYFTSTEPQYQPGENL
I'd appreciate it if you could supply residual activity values for the items below.
Give the value; after it, write the unit.

Exercise: Give recorded residual activity. Nc1ncnc2c1cnn2-c1ccccc1
Key: 98%

Exercise: Give recorded residual activity. CCN(CC)CCNC(=O)c1c(C)[nH]c(/C=C2\C(=O)Nc3ccc(Cl)cc32)c1C
Key: 13%

Exercise: Give recorded residual activity. NC(=O)c1cccc(-c2cc(Nc3ccc(OC(F)(F)F)cc3)ncn2)c1
Key: 98%

Exercise: Give recorded residual activity. Nc1n[nH]c2nc3ccccc3nc12
Key: 83%

Exercise: Give recorded residual activity. O=C1NC(=O)C(c2c[nH]c3ccccc23)=C1c1c[nH]c2ccccc12
Key: 76%

Exercise: Give recorded residual activity. NC(=O)Nc1sc(-c2ccc(F)cc2)cc1C(N)=O
Key: 10%

* * *

Target: Tyrosine-protein kinase TXK (Homo sapiens) (UniProt P42681)
Sequence (whole entry): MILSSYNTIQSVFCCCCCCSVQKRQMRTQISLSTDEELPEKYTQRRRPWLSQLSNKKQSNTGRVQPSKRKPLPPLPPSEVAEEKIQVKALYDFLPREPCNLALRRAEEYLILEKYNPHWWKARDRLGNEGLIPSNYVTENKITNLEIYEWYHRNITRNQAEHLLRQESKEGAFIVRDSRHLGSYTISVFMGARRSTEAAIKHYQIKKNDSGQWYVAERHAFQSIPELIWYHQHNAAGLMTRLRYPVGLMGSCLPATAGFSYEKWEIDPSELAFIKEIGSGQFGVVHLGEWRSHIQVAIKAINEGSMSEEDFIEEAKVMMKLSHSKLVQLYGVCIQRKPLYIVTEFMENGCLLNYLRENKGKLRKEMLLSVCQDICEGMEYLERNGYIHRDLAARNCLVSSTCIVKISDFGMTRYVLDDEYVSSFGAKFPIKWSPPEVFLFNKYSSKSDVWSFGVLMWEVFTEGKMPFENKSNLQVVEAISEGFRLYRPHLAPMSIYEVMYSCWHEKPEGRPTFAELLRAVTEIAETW
Conditions: at 10 µM
RECORDED_METRIC: residual activity

Exercise: Give recorded residual activity. O=C(c1cc2cc(O)ccc2[nH]1)c1cc2cc(O)ccc2[nH]1
Key: 22%

Exercise: Give recorded residual activity. CC(C)c1nn(-c2c(Cl)cccc2Cl)c2nc(Cc3ccc(OCCO)cc3)[nH]c(=O)c12
Key: 99%

Exercise: Give recorded residual activity. Nc1n[nH]c2nc3ccccc3nc12
Key: 76%

Exercise: Give recorded residual activity. CC(C)(C)c1nc2c3ccc(F)cc3c3c(=O)[nH]ccc3c2[nH]1
Key: 57%

Exercise: Give recorded residual activity. O=C(CCCc1ccc(-c2ccccc2F)cc1)Nc1ccc(O)cc1
Key: 89%

Exercise: Give recorded residual activity. O=C(O)/C=C/c1cc(Br)c(Br)c(Br)c1Br
Key: 95%

Exercise: Give recorded residual activity. NC(=O)c1ccc(-c2nc(-c3ccc4c(c3)OCCO4)c(-c3ccccn3)[nH]2)cc1
Key: 94%

Exercise: Give recorded residual activity. Cn1c2ccccc2c2c3c(c4c5ccccc5n(CCC#N)c4c21)CNC3=O
Key: 8%

Reference source for all entries: ChEMBL document CHEMBL2218924
